# target: Mitogen-activated protein kinase 10 (Homo sapiens, UniProt P53779)
# Sequence (P53779 whole entry): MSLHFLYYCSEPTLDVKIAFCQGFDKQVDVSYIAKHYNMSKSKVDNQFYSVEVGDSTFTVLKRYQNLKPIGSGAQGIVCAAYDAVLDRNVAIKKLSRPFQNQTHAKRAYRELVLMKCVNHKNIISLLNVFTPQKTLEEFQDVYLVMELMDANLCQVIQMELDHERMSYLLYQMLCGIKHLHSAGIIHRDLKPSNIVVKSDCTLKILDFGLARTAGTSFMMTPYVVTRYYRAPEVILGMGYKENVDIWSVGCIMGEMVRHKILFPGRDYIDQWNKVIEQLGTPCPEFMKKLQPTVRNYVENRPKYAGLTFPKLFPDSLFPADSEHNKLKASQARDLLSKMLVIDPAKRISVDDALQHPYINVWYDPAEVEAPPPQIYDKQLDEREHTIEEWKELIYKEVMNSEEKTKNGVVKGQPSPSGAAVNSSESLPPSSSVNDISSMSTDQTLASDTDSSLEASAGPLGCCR
# protocol: Inhibition of recombinant JNK3 after 60 mins by TR-FRET assay
propertyMeasured: IC50

| structureString | target | readoutValue |
| --- | --- | --- |
| CCc1csc(NC(=O)Cc2ccc(OC)cc2)c1C(=O)OC | Mitogen-activated protein kinase 10 (Homo sapiens, UniProt P53779) | 9110 nM |
| O=C(CN1C(=O)CCc2ccccc21)Nc1scc(Cl)c1-c1ncn[nH]1 | Mitogen-activated protein kinase 10 (Homo sapiens, UniProt P53779) | 5 nM |
| COC(=O)c1c(C)csc1NC(=O)Cc1ccc(OCCCn2ccnc2)cc1 | Mitogen-activated protein kinase 10 (Homo sapiens, UniProt P53779) | 504 nM |
| COC(=O)c1c(C)csc1NC(=O)Cc1cccc2cnccc12 | Mitogen-activated protein kinase 10 (Homo sapiens, UniProt P53779) | 62 nM |
| Cc1n[nH]c(-c2c(C)csc2NC(=O)Cc2cccc3ncccc23)n1 | Mitogen-activated protein kinase 10 (Homo sapiens, UniProt P53779) | 80 nM |
| Cc1nnc(-c2c(C)csc2NC(=O)Cc2ccc(-c3ccncc3)cc2)[nH]1 | Mitogen-activated protein kinase 10 (Homo sapiens, UniProt P53779) | 324 nM |
| Cc1n[nH]c(-c2c(C)csc2NC(=O)CN2C(=O)CCc3ccccc32)n1 | Mitogen-activated protein kinase 10 (Homo sapiens, UniProt P53779) | 25 nM |
| O=C(Cc1cccc2cnccc12)Nc1scc(Br)c1-c1ncn[nH]1 | Mitogen-activated protein kinase 10 (Homo sapiens, UniProt P53779) | 33 nM |
| COC(=O)c1c(C)csc1NC(=O)Cc1ccc(OC)cc1 | Mitogen-activated protein kinase 10 (Homo sapiens, UniProt P53779) | 700 nM |
| COC(=O)c1c(C)csc1NC(=O)Cc1ccc(-c2ccncc2)cc1 | Mitogen-activated protein kinase 10 (Homo sapiens, UniProt P53779) | 263 nM |
| CCOC(=O)c1c(C#N)csc1NC(=O)Cc1ccc(OC)cc1 | Mitogen-activated protein kinase 10 (Homo sapiens, UniProt P53779) | 310 nM |
| CCOC(=O)c1c(C2CC2)csc1NC(=O)Cc1ccc(OC)cc1 | Mitogen-activated protein kinase 10 (Homo sapiens, UniProt P53779) | 9620 nM |
| COC(=O)c1c(C)csc1NC(=O)Cc1cccc2nccnc12 | Mitogen-activated protein kinase 10 (Homo sapiens, UniProt P53779) | 162 nM |
| N#Cc1csc(NC(=O)Cc2cccc3cnccc23)c1-c1ncn[nH]1 | Mitogen-activated protein kinase 10 (Homo sapiens, UniProt P53779) | 7 nM |
| O=C(Cc1cccc2ncccc12)Nc1scc(Cl)c1-c1ncn[nH]1 | Mitogen-activated protein kinase 10 (Homo sapiens, UniProt P53779) | 18 nM |
| C#Cc1csc(NC(=O)Cc2ccc(OC)cc2)c1C(=O)OCC | Mitogen-activated protein kinase 10 (Homo sapiens, UniProt P53779) | 3020 nM |
| O=C(CN1C(=O)CCc2ccccc21)Nc1scc(Br)c1-c1ncn[nH]1 | Mitogen-activated protein kinase 10 (Homo sapiens, UniProt P53779) | 28 nM |
| COC(=O)c1c(C)csc1NC(=O)Cc1cccc2ncccc12 | Mitogen-activated protein kinase 10 (Homo sapiens, UniProt P53779) | 110 nM |
| O=C(Cc1cccc2cnccc12)Nc1scc(Cl)c1-c1ncn[nH]1 | Mitogen-activated protein kinase 10 (Homo sapiens, UniProt P53779) | 11 nM |
| COC(=O)c1c(C)csc1NC(=O)Cc1cccc2cc[nH]c12 | Mitogen-activated protein kinase 10 (Homo sapiens, UniProt P53779) | 1020 nM |
| CCOC(=O)c1c(C(F)(F)F)csc1NC(=O)Cc1ccc(OC)cc1 | Mitogen-activated protein kinase 10 (Homo sapiens, UniProt P53779) | 38800 nM |
| COC(=O)c1c(C)csc1NC(=O)Cc1ccc(OCCCN2CCCC2)cc1 | Mitogen-activated protein kinase 10 (Homo sapiens, UniProt P53779) | 226 nM |
| N#Cc1csc(NC(=O)Cc2cccc3ncccc23)c1-c1nnc[nH]1 | Mitogen-activated protein kinase 10 (Homo sapiens, UniProt P53779) | 12 nM |
| Cc1n[nH]c(-c2c(C)csc2NC(=O)Cc2cccc3nccnc23)n1 | Mitogen-activated protein kinase 10 (Homo sapiens, UniProt P53779) | 594 nM |
| Cc1n[nH]c(-c2c(C)csc2NC(=O)Cc2ccc(OCCCN3CCCCC3)cc2)n1 | Mitogen-activated protein kinase 10 (Homo sapiens, UniProt P53779) | 197 nM |
| COC(=O)c1c(C)csc1NC(=O)CN1C(=O)CCc2ccccc21 | Mitogen-activated protein kinase 10 (Homo sapiens, UniProt P53779) | 125 nM |
| N#Cc1csc(NC(=O)CN2C(=O)CCc3ccccc32)c1-c1ncn[nH]1 | Mitogen-activated protein kinase 10 (Homo sapiens, UniProt P53779) | 6 nM |
| O=C(Cc1cccc2ncccc12)Nc1scc(Br)c1-c1ncn[nH]1 | Mitogen-activated protein kinase 10 (Homo sapiens, UniProt P53779) | 34 nM |
| COc1ccc(CC(=O)Nc2scc(C)c2-c2nc(C)n[nH]2)cc1 | Mitogen-activated protein kinase 10 (Homo sapiens, UniProt P53779) | 465 nM |
| COC(=O)c1c(C)csc1NC(=O)Cc1ccc(OCCCN2CCCCC2)cc1 | Mitogen-activated protein kinase 10 (Homo sapiens, UniProt P53779) | 99 nM |

* * *

Examples of compounds with documented remaining at 2 h, 5 µM follow.
# protocol: Oxidative metabolic stability in human liver microsomes assessed as compound remaining at 5 uM after 120 mins
# Assay type: ADME, Microsome
# conditionContext: read-out: Stability

| structureString | remaining at 2 h, 5 µM (%) |
| --- | --- |
| O=C(Cc1cccc2cnccc12)Nc1scc(Cl)c1-c1ncn[nH]1 | 50 |
| N#Cc1csc(NC(=O)CN2C(=O)CCc3ccccc32)c1-c1ncn[nH]1 | 39 |
| O=C(CN1C(=O)CCc2ccccc21)Nc1scc(Cl)c1-c1ncn[nH]1 | 20 |
| Cc1csc(NC(=O)CN2C(=O)CCc3ccccc32)c1-c1ncn[nH]1 | 0 |
| N#Cc1csc(NC(=O)Cc2cccc3cnccc23)c1-c1ncn[nH]1 | 62 |
| Cc1csc(NC(=O)Cc2cccc3ncccc23)c1-c1ncn[nH]1 | 46 |

* * *

# Tested on: MDR1
# protocol: Efflux ratio of permeability from basolateral to apical side over apical to basolateral side in MDCK2 cells expressing MDR1
# Assay type: ADME, cell-based, Canis lupus familiaris, MDCK-II
# conditionContext: dog, MDCK-MDR1
class 1 if efflux ratio is below 3. class 0 if not; exact matches included in class 0.

| structureString | label |
| --- | --- |
| O=C(CN1C(=O)CCc2ccccc21)Nc1scc(Cl)c1-c1ncn[nH]1 | class 1 |
| N#Cc1csc(NC(=O)Cc2cccc3cnccc23)c1-c1ncn[nH]1 | class 0 |
| O=C(Cc1cccc2cnccc12)Nc1scc(Cl)c1-c1ncn[nH]1 | class 1 |
| Cc1csc(NC(=O)CN2C(=O)CCc3ccccc32)c1-c1ncn[nH]1 | class 0 |
| N#Cc1csc(NC(=O)CN2C(=O)CCc3ccccc32)c1-c1ncn[nH]1 | class 0 |

* * *

# Lookup of reported pIC50 keyed by entry
# target: Mitogen-activated protein kinase 1 (Homo sapiens, UniProt P28482)
# Sequence (P28482 whole entry): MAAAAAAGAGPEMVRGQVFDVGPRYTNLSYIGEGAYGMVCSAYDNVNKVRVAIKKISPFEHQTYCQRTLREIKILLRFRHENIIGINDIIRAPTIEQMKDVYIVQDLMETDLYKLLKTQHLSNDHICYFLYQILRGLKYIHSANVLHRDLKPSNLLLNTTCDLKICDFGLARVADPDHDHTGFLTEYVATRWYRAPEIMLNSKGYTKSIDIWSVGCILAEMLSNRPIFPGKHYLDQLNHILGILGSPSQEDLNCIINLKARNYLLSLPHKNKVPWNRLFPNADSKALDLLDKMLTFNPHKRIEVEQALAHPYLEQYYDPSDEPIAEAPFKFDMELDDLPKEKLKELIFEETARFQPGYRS
# protocol: Inhibition of recombinant ERK2 after 60 mins by TR-FRET assay
pIC50: −log10 of the molar value.
propertyMeasured: pIC50

| structureString | readoutValue |
| --- | --- |
| N#Cc1csc(NC(=O)Cc2cccc3ncccc23)c1-c1nnc[nH]1 | 4.45 |
| Cc1n[nH]c(-c2c(C)csc2NC(=O)Cc2cccc3nccnc23)n1 | < 5.30 |
| Cc1n[nH]c(-c2c(C)csc2NC(=O)CN2C(=O)CCc3ccccc32)n1 | < 4.30 |
| O=C(Cc1cccc2ncccc12)Nc1scc(Cl)c1-c1ncn[nH]1 | < 4.30 |
| O=C(Cc1cccc2cnccc12)Nc1scc(Br)c1-c1ncn[nH]1 | < 4.30 |
| Cc1n[nH]c(-c2c(C)csc2NC(=O)Cc2cccc3ncccc23)n1 | < 4.30 |
| O=C(CN1C(=O)CCc2ccccc21)Nc1scc(Br)c1-c1ncn[nH]1 | < 4.30 |
| O=C(Cc1cccc2cnccc12)Nc1scc(Cl)c1-c1ncn[nH]1 | < 4.30 |
| O=C(Cc1cccc2ncccc12)Nc1scc(Br)c1-c1ncn[nH]1 | < 4.30 |
| Cc1nnc(-c2c(C)csc2NC(=O)Cc2ccc(-c3ccncc3)cc2)[nH]1 | < 5.30 |

* * *

# Tested on: MDR1
# protocol: Apparent permeability of the compound from apical to basolateral direction in MDCK2 cells expressing MDR1
# Format: ADME, cell-based, Canis lupus familiaris, MDCK-II
# conditionContext: dog, MDCK-MDR1
Papp A→B reference

| structureString | target | Papp A→B [×10⁻⁶ cm/s] |
| --- | --- | --- |
| COC(=O)c1sccc1NC(=O)Cc1cccs1 | MDR1 | 14.4 |
| O=C(CN1C(=O)CCc2ccccc21)Nc1scc(Cl)c1-c1ncn[nH]1 | MDR1 | 23.3 |
| N#Cc1csc(NC(=O)CN2C(=O)CCc3ccccc32)c1-c1ncn[nH]1 | MDR1 | 18 |
| Cc1csc(NC(=O)Cc2cccc3ncccc23)c1-c1ncn[nH]1 | MDR1 | 16.1 |
| Cc1csc(NC(=O)CN2C(=O)CCc3ccccc32)c1-c1ncn[nH]1 | MDR1 | 14.8 |
| N#Cc1csc(NC(=O)Cc2cccc3cnccc23)c1-c1ncn[nH]1 | MDR1 | 13.3 |
| O=C(Cc1cccc2cnccc12)Nc1scc(Cl)c1-c1ncn[nH]1 | MDR1 | 27 |
